Exercise: for every item that follows, state its recorded Activity.
Experiment: Cytotoxicity against human YD-15 cells assessed as reduction of cell viability at 50 uM measured after 24 hrs by MTT assay
Assay type: functional
Answers are plain numbers, in %.

Study these solved cases before continuing.
structure_string=COc1ccc(CNc2ccc3c(C)nn(C)c3c2)c(O)c1 assay_value=102.06
structure_string=COc1cc(CNc2ccc3c(C)nn(C)c3c2)cc(OC)c1OC assay_value=86.71
structure_string=COc1ccc(CNc2ccc3c(C)nn(C)c3c2)c(OC)c1OC assay_value=101.41

Go through the items and report each one's Activity.
1. Cc1nn(C)c2cc(NCc3ccc([N+](=O)[O-])cc3)ccc12
2. Cc1nn(C)c2cc(NCc3ccc(N(C)C)cc3)ccc12
3. COc1ccc(CNc2ccc3c(C)nn(C)c3c2)cc1
4. Cc1nn(C)c2cc(NCc3ccc(O)cc3)ccc12
5. Cc1nn(C)c2cc(NCc3ccc(Cl)cc3)ccc12
6. Cc1nn(C)c2cc(NCc3ccc(F)c(F)c3)ccc12
7. Cc1nn(C)c2cc(NCc3ccncc3)ccc12

1. 94.88
2. 26.86
3. 67.1
4. 98.59
5. 52.82
6. 63.3
7. 97.98

For each of the items listed, what is its Activity?
1. Cc1nn(C)c2cc(NCc3ccc(Br)cc3)ccc12
2. COc1ccc(CNc2ccc3c(C)nn(C)c3c2)cc1O

7.87
99.01

---

Assay: Cytotoxicity against human DPSC cells assessed as reduction of cell viability at 20 uM measured after 24 hrs by MTT assay
Type: toxicity, cell-based
Exercise: for every item that follows, state its recorded Activity.
Numbers only, in %.

structure_string=Cc1nn(C)c2cc(NCc3ccncc3)ccc12 assay_value=82.84
structure_string=Cc1nn(C)c2cc(NCc3ccc(Br)cc3)ccc12 assay_value=94.66
structure_string=Cc1nn(C)c2cc(NCc3ccc(Cl)cc3)ccc12 assay_value=84.13
structure_string=COc1ccc(CNc2ccc3c(C)nn(C)c3c2)cc1 assay_value=91.62
structure_string=Cc1nn(C)c2cc(NCc3ccc([N+](=O)[O-])cc3)ccc12 assay_value=100.99

Need Activity, item `COc1ccc(CNc2ccc3c(C)nn(C)c3c2)c(OC)c1OC` 90.13

---

Target: Indoleamine 2,3-dioxygenase 1 (Homo sapiens)
Sequence (P14902 whole entry, looked up): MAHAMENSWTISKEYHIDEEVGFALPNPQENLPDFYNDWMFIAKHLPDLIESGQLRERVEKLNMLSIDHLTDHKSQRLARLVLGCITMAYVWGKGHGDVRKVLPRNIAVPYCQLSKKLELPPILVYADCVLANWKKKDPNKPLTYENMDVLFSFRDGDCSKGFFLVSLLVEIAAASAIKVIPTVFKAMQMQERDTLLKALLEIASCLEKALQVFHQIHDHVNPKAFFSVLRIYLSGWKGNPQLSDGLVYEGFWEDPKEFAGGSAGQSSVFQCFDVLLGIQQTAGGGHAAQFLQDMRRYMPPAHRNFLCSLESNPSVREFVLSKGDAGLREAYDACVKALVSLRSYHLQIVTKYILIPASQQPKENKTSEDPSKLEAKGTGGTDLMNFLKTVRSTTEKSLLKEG
Test: Inhibition of human IDO1 expressed in human FaDu cells at IC50 incubated for 24 hrs by ELISA assay
Format: cell-based
Active and inactive are the calls of the source. No cut-off for these calls is given here.
PARAMETER_MEASURED: IDO1 inhibition (qualitative)

// worked examples, IDO1 inhibition (qualitative) included
structure_string=COc1ccc(CNc2ccc3c(C)nn(C)c3c2)cc1O parameter_measured="IDO1 inhibition (qualitative)" assay_value=Active
structure_string=Cc1nn(C)c2cc(NCc3ccc(F)c(F)c3)ccc12 parameter_measured="IDO1 inhibition (qualitative)" assay_value=Active
structure_string=COc1ccc(CNc2ccc3c(C)nn(C)c3c2)cc1 parameter_measured="IDO1 inhibition (qualitative)" assay_value=Active
structure_string=COc1ccc(CNc2ccc3c(C)nn(C)c3c2)c(OC)c1OC parameter_measured="IDO1 inhibition (qualitative)" assay_value=Active
structure_string=Cc1nn(C)c2cc(NCc3ccc([N+](=O)[O-])cc3)ccc12 parameter_measured="IDO1 inhibition (qualitative)" assay_value=Active

Now let's try a different one.
Indoleamine 2,3-dioxygenase 1 (Homo sapiens) / IDO1 inhibition (qualitative) / `Cc1nn(C)c2cc(NCc3ccc(Cl)cc3)ccc12` : value? Active

Values from ChEMBL document CHEMBL5325464
